Measured values drawn from patent US20250320312A1 for this set.

- tgt: Peptide 5: Biotin-…-[Tyr(PC)]-acid
- Sequence (peptide, as listed by the source): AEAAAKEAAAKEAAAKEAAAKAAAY
- assay.procedure: scFv ELISA
assay.endpoint: OD450 (OD450)
Enter your answer as a number in OD450; do not include the unit.

The examples below pair each entry with its known result.
[[record]]
binder = "PcOxP_DB03_C06 (scFv, V domains shown, scFv in periplasmic extract) VH: EVQLLESGGGLVQPGGSLRLSCAASGATFSDFYMEWVRQAPGKGLEWVAASRNGANDYTTEYADSVKGRFTISRDNSKNTLYLQMNSLRAEDTAVYYCARDYYGNSYWYFDVWGQGTLVTVSS VL: DIQMTQSPSSLSASVGDRVTITCTASESLYSSKHKVHYLAWYQQKPGKAPKLLIYGASNRQSGVPSRFSGSGSGTDFTLTISSLQPEDFATYYCAQFYVYPLTFGGGTKVEIK"
measured_number = 0.61

[[record]]
binder = "PcOxP_DB03_D10 (scFv, V domains shown, scFv in periplasmic extract) VH: EVQLLESGGGLVQPGGSLRLSCAASGFTTSDFYMEWVRQAPGKGLEWVAASRNKANGYTTEYADSVKGRFTISRDNSKNTLYLQMNSLRAEDTAVYYCARDYYGSSYWYFDVWGQGTLVTVSS VL: DIVMTQSPDSLAVSLGERATINCTASESLYSSKHKVHYLAWYQQKPGQPPKLLIYGASGRYIGVPDRFSGSGSGTDFTLTISSLQAEDVAVYYCAQFYSYPLTFGGGTKVEIK"
measured_number = 1.41


The reported OD450 of the binder PcOxP_DB02_B07 (scFv, V domains shown, scFv in periplasmic extract) VH: EVQLLESGGGLVQPGGSLRLSCAASGFTFSDQYMEWVRQAPGKGLEWVAASRNNANDYTTEYADSVKGRFTISRDNSKNTLYLQMNSLRAEDTAVYYCARDYYGSSYWYFDVWGQGTLVTVSS VL: DIVMTQSPDSLAVSLGERATINCTASESLYSSKHKVHYLAWYQQKPGQPPKLLIYGASNRQIGVPDRFSGSGSGTDFTLTISSLQAEDVAVYYCAQFYHYPLTFGGGTKVEIK was 0.77

The reported OD450 of the binder PcOxP_DB01_C12 (scFv, V domains shown, scFv in periplasmic extract) VH: EVQLLESGGGLVQPGGSLRLSCAASGFTFSDFYMEWVRQAPGKGLEWVAASRNKANDYTTELADSVKGRFTISRDNSKNTLYLQMNSLRAEDTAVYYCARDYYGSSYWYFDVWGQGTLVTVSS VL: DIQMTQSPSSLSASVGDRVTITCTASESLYSSKHKVHYLAWYQQKPGKAPKLLIYGAANRYIGVPSRFSGSGSGTDFTLTISSLQPEDFATYYCAQFYVYPLTFGGGTKVEIK was 1.18

The reported OD450 of the binder PcOxP_DB04_D07 (scFv, V domains shown, scFv in periplasmic extract) VH: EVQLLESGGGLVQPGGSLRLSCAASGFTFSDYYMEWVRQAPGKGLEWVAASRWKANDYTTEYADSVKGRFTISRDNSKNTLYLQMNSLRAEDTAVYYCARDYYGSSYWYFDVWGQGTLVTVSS VL: DIVMTQSPDSLAVSLGERATINCTASESLYSSKHKVHYLAWYQQKPGQPPKLLIYGASNRYIGVPDRFSGSGSGTDFTLTISSLQAEDVAVYYCAQFYTYPLTFGGGTKVEIK was 1.05

The reported OD450 of the binder PcOxP_DB04_B12 (scFv, V domains shown, scFv in periplasmic extract) VH: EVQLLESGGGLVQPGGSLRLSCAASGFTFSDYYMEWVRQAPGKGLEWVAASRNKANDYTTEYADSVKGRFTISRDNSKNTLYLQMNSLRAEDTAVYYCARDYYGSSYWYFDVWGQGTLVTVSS VL: DIVMTQSPDSLAVSLGERATINCTASESLYSSKHKVHYLAWYQQKPGQPPKLLIYGASNRYIGVPDRFSGSGSGTDFTLTISSLQAEDVAVYYCAAFYSYPLTFGGGTKVEIK was 0.34

The reported OD450 of the binder PcOxP_DB04_A10 (scFv, V domains shown, scFv in periplasmic extract) VH: EVQLLESGGGLVQPGGSLRLSCAASGDTFSDFYMEWVRQAPGKGLEWVAASRNKWNDYTTEYADSVKGRFTISRDNSKNTLYLQMNSLRAEDTAVYYCARDYYGSSYWYFDVWGQGTLVTVSS VL: DIQMTQSPSSLSASVGDRVTITCTASESLYSSKHKVHYLAWYQQKPGKAPKLLIYGASNRQIGVPSRFSGSGSGTDFTLTISSLQPEDFATYYCAQFYSYPLTFGGGTKVEIK was 1.61

The reported OD450 of the binder PcOxP_DB04_E08 (scFv, V domains shown, scFv in periplasmic extract) VH: EVQLLESGGGLVQPGGSLRLSCAASGFTSSDFYLEWVRQAPGKGLEWVAASRNKWNDYTTEYADSVKGRFTISRDNSKNTLYLQMNSLRAEDTAVYYCARDYYGSSYWYFDVWGQGTLVTVSS VL: DIVMTQSPDSLAVSLGERATINCTASESLYSSKHKVHYLAWYQQKPGQPPKLLIYGVSNRYIGVPDRFSGSGSGTDFTLTISSLQAEDVAVYYCAQFYSYPLTFGGGTKVEIK was 2.01

The reported OD450 of the binder PcOxP_DB02_C03 (scFv, V domains shown, scFv in periplasmic extract) VH: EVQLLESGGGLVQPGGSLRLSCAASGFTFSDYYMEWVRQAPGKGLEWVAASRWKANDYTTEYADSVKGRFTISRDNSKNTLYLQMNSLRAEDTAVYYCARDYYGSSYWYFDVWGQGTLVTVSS VL: DIVMTQSPDSLAVSLGERATINCTASESLYSSKHKVHYLAWYQQKPGQPPKLLIYGASNRYIGVPDRFSGSGSGTDFTLTISSLQAEDVAVYYCAQFYVYPLTFGGGTKVEIK was 0.61

The reported OD450 of the binder PcOxP_DB01_D06 (scFv, V domains shown, scFv in periplasmic extract) VH: EVQLLESGGGLVQPGGSLRLSCAASGFTFSDFYMEWVRQAPGKGLEWVAASRNKANDYTTEYADSVKGRFTISRDNSKNTLYLQMNSLRAEDTAVYYCARDYYGSSYWYFDSWGQGTLVTVSS VL: DIVMTQSPDSLAVSLGERATINCTASESLYSSKHKVHYLAWYQQKPGQPPKLLIYGASNRYIGVPDRFSGSGSGTDFTLTISSLQAEDVAVYYCAQFYIYPLTFGGGTKVEIK was 0.69
